test system: HS 578T breast; experiment: NCI-60 one-dose screen, 48 h (100 = growth as untreated, 0 = no growth, -100 = all killed); settings: 10 µM
About 83,000 compounds went through this panel and 20% of them were active in at least one assay; those are over-represented in the sample as a whole.
Classification field: enter true (1) for growth values not below 30%, false (0) for values below it.

Reference set, count: 3
O=[N+]([O-])c1ccc(-c2nc(-c3ccccc3)c(-c3ccccc3)n2-c2ccc(S(=O)(=O)Nc3ncccn3)cc2)cc1 = true (1)
O=C(CSc1nnc(-c2c[nH]c3ccccc23)n1-c1ccccc1)c1ccc(Cl)cc1 = true (1)
C=C1CC[C@H](C(=C)C)[C@H]2C=C(C)C(=O)C3=C(C(=O)[C@@](C)(O)C3)[C@H]12 = false (0)

Does the compound CCNCCCn1c2c(c3cc(OC)c(OC)cc3c1=O)C(=O)c1cc3c(nc1-2)OCO3 have recorded growth that is 30% or more? true (1)

Do the same for CCOP(=O)(OCC)O[C@H]1CC[C@]2(C)[C@H]3CC[C@@H]4[C@@H]([C@](C)(O)CCC=C(C)C)CC[C@@]4(C)[C@]3(C)CC[C@H]2C1(C)C please false (0)

Do the same for O=C(Cc1ccc2c(c1)CN(C1CCC(=O)NC1=O)C2=O)NCCc1ccccc1 (centres undefined) please false (0)

Do the same for COc1ccccc1NCc1ccc(CO)n1-c1ccc(C)cc1 please true (1)

Do the same for O=C(Nc1cccc(C(F)(F)F)c1)c1cncc(C#Cc2cnc3ccc(N4CCOCC4)nn23)c1 please false (0)

* * *

Tested on: HOP-62 NSCLC
Assay: NCI-60 one-dose screen, 48 h
Details: 10 µM
Method: Growth inhibition of the HOP-62 human Non-Small Cell Lung tumor cell line is measured as a screen for anti-cancer activity. Cells are grown in 96 well plates and exposed to the test compound for 48 hours. Compounds are tested at a single concentration, which is 10^-5 M for most compounds. The reported endpoint is percent growth (GI% or GIPRCNT), where numbers from 0 - 100% represent growth inhibition, and numbers from -100% - 0 represent cell death. […]
The panel holds about 83,000 compounds, 20% with a hit somewhere; the sample as a whole holds those more often. Activity calls are given as the source filed them. Rule for the calls: active = growth percent below 10; inactive = the rest.
Pick from 1 (yes) (active), 0 (no) (inactive) when you respond.

COc1ccc(/C(CSc2nnc(-c3c[nH]c4ccccc34)n2-c2ccccc2)=N/O)cc1 = 0 (no)
COc1ccc2c(c1)N=C(C(=O)O)/C2=C/c1sc(Nc2ccc(O)cc2)nc1O = 0 (no)
O=C(CNc1nc(-c2ccccc2)cs1)Nc1cccc(Cl)c1 = 0 (no)

Check the results log: what was the call for O=C(NO)c1ccc(CNc2nc(-c3ccccc3)c3ccccc3n2)cc1 ? 1 (yes)

Do the same for O=C(CSc1nnc(-c2c[nH]c3ccccc23)n1-c1ccccc1)Nc1ccc(C(=O)/C=C/c2ccc(Cl)cc2)cc1 please 0 (no)

* * *

system: HS 578T breast; assay: NCI-60 one-dose screen, 48 h (100 = growth as untreated, 0 = no growth, -100 = all killed); settings: 10 µM
About 83,000 compounds went through this panel and 20% of them were active in at least one assay; those are over-represented in the sample as a whole.
Hi! Just check whether growth is below 60%. Below gives true (1), equal or above gives false (0).

Reference set, count: 3
CCOC(=O)c1sc(N/N=C(\C)c2ccc3c(c2)Nc2ccccc2S3)nc1C = true (1)
CCCS(=O)(=O)c1oc(-c2ccc(F)cc2)nc1S(=O)(=O)c1ccc(F)cc1 = true (1)
CC(=O)c1ccc(NC(=O)NCn2c(=O)[nH]c3ccccc3c2=O)cc1 = false (0)

Please determine if O=C(Nc1nc2ccc([N+](=O)[O-])cc2s1)Nc1cc(Cl)ccc1I is below 60% in terms of growth. true (1)

Do the same for NS(=O)(=O)c1ccc(NC(=O)CSc2ccc(-c3ccccc3)nn2)c(Br)c1 please true (1)
